- SYSTEM_NAME: PRMT5/MEP50 (Homo sapiens, UniProt O14744)
- Construct: Expressed full-length human Flag-PRMT5/6His-MeP50 protein complex was purified; made in house; host or cells: Spodoptera frugiperda (SF9) insect cells, baculovirus (pDEST8)
- Sequence (O14744 with tags, fused parts or gaps): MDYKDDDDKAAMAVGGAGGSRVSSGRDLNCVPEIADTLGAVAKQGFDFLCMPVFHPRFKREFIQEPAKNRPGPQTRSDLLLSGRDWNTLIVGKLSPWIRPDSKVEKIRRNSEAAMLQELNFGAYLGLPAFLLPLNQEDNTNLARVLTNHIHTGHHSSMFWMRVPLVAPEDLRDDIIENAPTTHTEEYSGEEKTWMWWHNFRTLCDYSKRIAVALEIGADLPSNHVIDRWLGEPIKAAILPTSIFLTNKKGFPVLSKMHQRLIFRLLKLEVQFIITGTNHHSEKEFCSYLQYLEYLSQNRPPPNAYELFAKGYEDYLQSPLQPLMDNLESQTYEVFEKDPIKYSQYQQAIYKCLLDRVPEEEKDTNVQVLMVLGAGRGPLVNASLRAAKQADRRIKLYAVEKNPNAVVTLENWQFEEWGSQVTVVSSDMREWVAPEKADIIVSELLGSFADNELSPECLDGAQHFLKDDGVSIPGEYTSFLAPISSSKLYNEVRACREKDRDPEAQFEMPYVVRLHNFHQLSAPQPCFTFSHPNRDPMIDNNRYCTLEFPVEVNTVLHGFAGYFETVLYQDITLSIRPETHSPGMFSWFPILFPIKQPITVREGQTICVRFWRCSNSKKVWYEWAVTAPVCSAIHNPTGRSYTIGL
- Sequence (Q9BQA1 with tags, fused parts or gaps partner limits assumed): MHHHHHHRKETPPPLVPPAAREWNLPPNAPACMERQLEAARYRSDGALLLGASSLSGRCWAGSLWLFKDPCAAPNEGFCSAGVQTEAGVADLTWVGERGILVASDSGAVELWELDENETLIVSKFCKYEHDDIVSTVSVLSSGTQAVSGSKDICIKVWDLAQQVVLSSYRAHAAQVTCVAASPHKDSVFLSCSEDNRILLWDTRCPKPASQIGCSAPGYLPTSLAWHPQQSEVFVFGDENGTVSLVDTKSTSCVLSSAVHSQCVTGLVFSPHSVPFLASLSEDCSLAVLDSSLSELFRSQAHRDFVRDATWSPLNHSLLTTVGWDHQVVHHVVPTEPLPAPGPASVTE
- EXPERIMENT: PRMT5 Biochemical Assay (PRMT5/MEP50 enzyme assay on peptide substrate, 3H-SAM Flashplate)
- CONDITION_DETAILS: Table B-2; PRMT5/MEP50 4 nM, 3H-SAM 75 nM, peptide 40 nM; read-out: Biochemical IC50
QUANTITY: IC50

{"COMPOUND": "CN1CCC(c2cccc(C(=O)NCC(O)CN3CCc4ccccc4C3)c2)C1 (centres unmarked) [Compound B38.]", "SYSTEM_NAME": "PRMT5/MEP50 (Homo sapiens, UniProt O14744)", "IC50": "< 100 nM"}
{"COMPOUND": "O=C(NCC(O)CN1CCc2ccccc2C1)c1cccc(-c2cccnc2)c1 (centres unmarked) [Compound B8.]", "SYSTEM_NAME": "PRMT5/MEP50 (Homo sapiens, UniProt O14744)", "IC50": "< 100 nM"}
{"COMPOUND": "CN(c1cccc(C(=O)NCC(O)CN2CCc3ccccc3C2)c1)C1CCOCC1 (centres unmarked) [Compound B49.]", "SYSTEM_NAME": "PRMT5/MEP50 (Homo sapiens, UniProt O14744)", "IC50": "101 to 1000 nM"}
{"COMPOUND": "O=C(NCC(O)CN1CCc2ccccc2C1)c1cccc(-c2ccncc2)c1 (centres unmarked) [Compound B9.]", "SYSTEM_NAME": "PRMT5/MEP50 (Homo sapiens, UniProt O14744)", "IC50": "< 100 nM"}
{"COMPOUND": "O=C(NCC(O)CN1CCc2ccccc2C1)c1cccc(-c2ccccn2)c1 (centres unmarked) [Compound B1.]", "SYSTEM_NAME": "PRMT5/MEP50 (Homo sapiens, UniProt O14744)", "IC50": "< 100 nM"}

What does the record list as IC50 for O=C(NCC(O)CN1CCc2ccccc2C1)c1cccc(N2CCNCC2)c1 (centres unmarked) [Compound B35.] ?
< 100 nM

What does the record list as IC50 for CN1CCN(c2cccc(C(=O)NCC(O)CN3CCc4ccccc4C3)c2)CC1 (centres unmarked) [Compound B36.] ?
< 100 nM

What does the record list as IC50 for O=C(NCC(O)CN1CCc2ccccc2C1)c1cccc(C2CCCN2)c1 (centres unmarked) [Compound B42.] ?
101 to 1000 nM
